# Assayed System: IgG (Gammanorm)
# Assay Comment: SPR (Biacore), variant amine-coupled to CM5 chip, Gammanorm as analyte, 1:1 kinetic fit
Value Type: pKd
pKd (log units): -log10 of the concentration in mol/L.

In the examples that follow, each entry is paired with its recorded pKd.
In: Which value of pKd has been reported for Protein L variant pAM262 (domain D1-2; H10, H45, Y60) (protein) PKEEVTIKAHLIFADGKTQTAEFKGTFEEATAEAYRYADLLAKVHGEYTADLEDGGYTIYIKFAGKEQPGEN in the records?
Out: 7.96

In: pKd lookup needed for Protein L variant pAM247 (domain C4-1; H10, H45, Q60) (protein) PKEEVTIKVHLIFADGKTQTAEFKGTFEEATAEAYRYADLLAKVHGEYTADLEDGGYTIQIKFAGKEQPGENPG , thanks.
Out: 8.05

Continuing:
In: // pKd lookup, key: Protein L variant pAM239 (domain B4-1; H10, H45, Q60) (protein) PKEEVTIKAHLIYADGKTQTAEFKGTFAEATAEAYRYADLLAKEHGKYTADLEDGGYTIQIRFAGKKVDEKPEE
Out: 7.77

# credit: patent US20250196025A1
